The reported numbers originate from patent US11578055B2.

- assay-summary: In Vitro Microsome Stability Assay (mouse)
- Assay type: in vitro ADME
- test-settings: mouse liver microsomes, 30 min w/ NADPH
Please note: label 1 applies when Liver Microsome Stability-% Left after 30 min w/ NADPH (%) Mouse is 40% or greater, and label 0 applies otherwise.

Worked examples follow.
substance-smiles: COCCN1CCCN(S(=O)(=O)c2ccc(N(C)C)cc2)C[C@H](C)CN(S(=O)(=O)N2CCc3cc(Cl)ccc3C2)CCC1
label-class: label 0
//
substance-smiles: C[C@H]1CN(S(=O)(=O)c2ccc(N(C)C)cc2)CCCN(CC2CCCCC2)CCCN(S(=O)(=O)N2CCc3c(C#N)cccc3C2)C1
label-class: label 0
//
substance-smiles: CN(C)c1ccc(S(=O)(=O)N2CCCN(CC3CCCCC3)CCCN(S(=O)(=O)N3CCCCC3)C2)cc1
label-class: label 0
//
substance-smiles: CC[C@H]1CN(S(=O)(=O)c2ccc(N(C)C)cc2)CCCN(CC2CCCCC2)CCCN(S(=O)(=O)N2CCc3cc(Cl)ccc3C2)C1
label-class: label 1
//
substance-smiles: Cc1cc(F)ccc1N1CCN(S(=O)(=O)N2CCCN(CC3CCCCC3)CCCN(S(=O)(=O)c3ccc(N(C)C)cc3)C[C@H](C)C2)CC1
label-class: label 1
//
substance-smiles: C[C@H]1CN(S(=O)(=O)c2ccc(N(C)C)cc2)CCCN(CC(C)(C)C)CCCN(S(=O)(=O)N2CCc3cc(Cl)ccc3C2)C1
label-class: label 0
//
substance-smiles: Cc1cccc(CN2CCCN(S(=O)(=O)c3ccc(N(C)C)cc3)C[C@H](C)CN(S(=O)(=O)N3CCc4cc(Cl)ccc4C3)CCC2)c1
label-class: label 1
//
substance-smiles: CC(=O)N(C)c1ccc(CNS(=O)(=O)N2CCCN(CC3CCCCC3)CCCN(S(=O)(=O)c3ccc(N(C)C)cc3)C[C@H](C)C2)cc1
label-class: label 0

Quick check, Liver Microsome Stability-% Left after 30 min w/ NADPH (%) Mouse >= 40%? `C[C@H]1CN(CC2CCCCC2)C[C@H](C)CN(S(=O)(=O)N2CCc3cc(Cl)ccc3C2)C[C@@H](C)CN(S(=O)(=O)c2ccc(N(C)C)cc2)C1`
label 1

Quick check, Liver Microsome Stability-% Left after 30 min w/ NADPH (%) Mouse >= 40%? `C[C@@H]1CN(S(=O)(=O)NCc2ccccc2)CCCN(CC2CCCCC2)CCCN(S(=O)(=O)c2ccc(N(C)C)cc2)C1`
label 0

Quick check, Liver Microsome Stability-% Left after 30 min w/ NADPH (%) Mouse >= 40%? `C[C@H]1CN(S(=O)(=O)c2ccc(N(C)C)cc2)CCCN(CC2CCCCC2)CCCN(S(=O)(=O)N(C)Cc2ccccc2)C1`
label 0

Quick check, Liver Microsome Stability-% Left after 30 min w/ NADPH (%) Mouse >= 40%? `C[C@@H]1CN(CC2CCCCC2)C[C@@H](C)CN(S(=O)(=O)N2CCc3cc(Cl)ccc3C2)C[C@@H](C)CN(S(=O)(=O)c2ccc(N(C)C)cc2)C1`
label 1

====

- assay-summary: In Vitro Microsome Stability Assay (monkey)
- Format: in vitro ADME
- test-settings: monkey liver microsomes, 30 min w/ NADPH
reported-property: Liver Microsome Stability-% Left after 30 min w/ NADPH (%) Monkey

substance-smiles: COc1cc(F)ccc1N1CCN(S(=O)(=O)N2CCCN(CC3CCCCC3)CCCN(S(=O)(=O)c3ccc(N(C)C)cc3)C[C@H](C)C2)C[C@H]1C
result-value: 2.8%

Report Liver Microsome Stability-% Left after 30 min w/ NADPH (%) Monkey for each item below.
1. C[C@@H]1CCN(S(=O)(=O)N2CCc3cc(Cl)ccc3C2)CCCN(CC2CCCCC2)CCCN1S(=O)(=O)c1ccc(N(C)C)cc1
2. Cc1ccc(CN2CCCN(S(=O)(=O)c3ccc(N(C)C)cc3)C[C@H](C)CN(S(=O)(=O)N3CCc4cc(Cl)ccc4C3)CCC2)cc1
3. C[C@H]1CN(S(=O)(=O)c2ccc(N(C)C)cc2)CCCN(CC2CCCCC2)CCCN(S(=O)(=O)N2CCNCC2)C1

["0.96%", "70.2%", "4.86%"]
